Would you mind telling me the reported TGI of each entry?
Test system: UO-31 renal
Procedure details: NCI tumour cell line growth inhibition, 48 h
Give bare numbers, in µM.

Answered cases to consult:
# Structure smiles string, Assayed system, Experimental endpoint, Reported
rows = [
    ("Cc1cc(C)c(OC(=O)Nc2cccc3ccccc23)c(-c2ccccc2)c1", "UO-31 renal", "TGI", 26.8),
    ("O=[N+]([O-])/C(C(Cl)=C(Cl)Cl)=C(\\Nc1cccc2ccccc12)Sc1ccccc1", "UO-31 renal", "TGI", 38.7),
    ("CC(=O)OC[C@]1(C)C=C2C(=O)[C@](C)(O)C3(CC3)C(C)=C2[C@H]1OC(=O)N(C)CCN(C)C(=O)OC(C)(C)C", "UO-31 renal", "TGI", 2.23),
]

The record that follows has no TGI shown yet.
## Task Can you look up the measured TGI of `CN(C)CCNc1ccc(NCCN(C)C)c2c1C(=O)c1ncsc1C2=O` for me?
## Result 32.2

* * *

Would you mind telling me the reported TGI of each entry?
System: UO-31 renal
Procedure details: NCI tumour cell line growth inhibition, 48 h
One number for each entry, in µM.

Answered cases to consult:
# Molecule, Assayed system, Experimental endpoint, Unit tag, Reported
records = [
    ("CCCCCCC[C@@H](O)CC(=O)NC(CC(C)C)C(=O)NC(CCC(=O)O)C(=O)NC1C(=O)NC(C(C)C)C(=O)NC(CC(C)C)C(=O)NC(CO)C(=O)NC(CC(C)C)C(=O)NC(CO)C(=O)NC(C(C)CC)C(=O)OC1C (some centres not stated)", "UO-31 renal", "TGI", "µM", 33.6),
    ("O=C(/C=C1\\C[C@H]2C=Nc3ccccc3C(=O)N2C1)NCCCNC(=O)/C=C1\\C[C@H]2C=Nc3ccccc3C(=O)N2C1", "UO-31 renal", "TGI", "µM", 28.4),
]

The record that follows has no TGI shown yet.
## Task Return TGI measured with UO-31 renal given this molecule: CC(=O)OCC1OC(n2c(-c3cccs3)c3c(c(C#N)c2=S)-c2ccccc2CC3)C(OC(C)=O)C(OC(C)=O)C1OC(C)=O (configuration not stated)
## Result 20.6

* * *

Would you mind telling me the reported GI50 of each entry?
Tested on: NCI-H226 lung
Procedure details: NCI tumour cell line growth inhibition, 48 h

Answered cases to consult:
# Compound, GI50
records = [
    ("CCOC(=O)C1=C(C)N(c2ccc(OC)cc2)C2(O)C=CC(=O)C3C(=O)N(c4ccccc4)C(=O)C132 (configuration not stated)", "2.56 µM"),
    ("CCOC(=O)c1cc2c(c3ccsc13)C1(C)CCC3c4ccc(OC)cc4CCC3C1C2 (configuration not stated)", "> 100 µM"),
    ("COC(=O)[C@@H](C[C@H](Cc1ccccc1)NC(=O)c1csc([C@@H](C[C@H](C(C)C)N(C)C(=O)[C@@H](NC(=O)[C@H]2CCCCN2C)C(C)C)OC(C)=O)n1)NC(=O)OCc1ccccc1", "0.00168 µM"),
    ("COc1ccc(S(=O)(=O)Nc2cc(/C=C\\c3cc(OC)c(OC)c(OC)c3)cc(OC)c2OC)cc1", "27.3 µM"),
    ("O=C(N/N=C\\c1c(O)ccc2ccccc12)C1CC1", "13.1 µM"),
    ("Cc1c2cnccc2c(C)c2c1c1cc(CO)ccc1n2C", "0.109 µM"),
    ("O=C1OCC2=C1C(c1cccc(Cl)c1)c1cc3c(cc1N2CCO)OCO3 (configuration not stated)", "0.753 µM"),
    ("O=C1c2ccccc2C(=O)c2c(N=Nc3[nH]c(=S)[nH]c3O)cccc21", "4.33 µM"),
    ("CCOC(=O)/C=C/C1=C(c2csc3ccccc23)c2ccccc2CC1", "> 100 µM"),
    ("O=C(Nc1cccc(-c2cccc(F)c2)c1)C1CCN(Cc2cccc3cccnc23)CC1", "3.15 µM"),
]

Hi, could you look up GI50 for each item in my list?
1. CCN(CC)CCOc1ccc(/C=C2\CC3C4CC=C5C[C@@H](N6CCCC6)CC[C@]5(C)C4CC[C@]3(C)[C@H]2OC(C)=O)cc1OC (some centres not stated)
2. CN([O-])c1nc(N(C)[O-])nc(N2CCOCC2)n1.CN([O-])c1nc(N(C)[OH2+])nc(N2CCOCC2)n1.[Fe+3]

## Result
1. 1.26 µM
2. > 100 µM
